Test system: PRKCE
Experimental Conditions: concentration: 1 μM, replicates: in singlicate; n = 1;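 note: KINOMEscan kinase panel screen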
Can you tell me %Inh for the items I'm about to list?

Cc1ccc(NC(=O)c2ccnc(N3CCN(C)CC3)c2)cc1-c1ccc(C(=O)NCC2CC2)cc1 [GW775604]
0%

// each listed compound needs a value for %Inh
1. CC(C)Oc1ccc2c(-c3ccnc(Nc4ccc(N5CCN(C)CC5)cc4)n3)cnn2n1 [GW696155]
2. NS(=O)(=O)CCc1cccc(Nc2nccc(-c3c(-c4cccc(NC(=O)c5c(F)cccc5F)c4)nn4ccccc34)n2)c1 [GSK336735]
3. CN1c2ccc(CNc3ccc(F)cc3)cc2-c2c(cnn2C)S1(=O)=O

Ans.
["28%", "0%", "5%"]

====

Can you tell me %Inh for the items I'm about to list?
Tested on: IKK-beta
Construct: gene IKBKB
Experimental Conditions: concentration: 1 μM, replicates: in singlicate; n = 1
Give bare numbers, in %.

CC(C)(C)n1cnc2c(N)ncnc21
0
O=c1cc(N2CCOCC2)nc2n(Cc3cccc4ccccc34)ccn12
17
O=C(NOCC1CC1)c1ccc(F)c(F)c1Nc1ccc(I)cc1Cl
35
Cl.Nc1ncnc2occ(-c3ccc(NC(=O)Nc4cc(C(F)(F)F)ccc4F)cc3)c12
35
COc1ccc(Nc2nccc(N3CCC(NC(=O)Nc4cccc(C(C)=O)c4)C3)n2)cc1 (stereo not drawn)
1

// each listed molecule needs a value for %Inh
1. O=c1cc(N2CCOCC2)nc2n(Cc3cccc(Cl)c3Cl)c(C3CC3)nn12
2. O=C(Nc1cccc(-c2nn3ncccc3c2-c2ccnc(Nc3cccc(C(F)(F)F)c3)n2)c1)c1c(F)cccc1F
3. Fc1ccc(-c2ncn(CCCN3CCOCC3)c2-c2ccccn2)cc1
4. Cn1ccc2ncnc(Oc3ccc(NC(=O)Nc4ccncc4)c(Cl)c3)c21

Ans.
[0, 17, 0, 16]

====

Test system: EPHA3
Experimental Conditions: concentration: 1 μM, replicates: in singlicate; n = 1
Property: %Inh

Example results:
O=c1cc(N2CCOCC2)nc2n(Cc3cccc4ccccc34)ccn12
0%
COc1ccc(COc2cc(-n3cnc4ccccc43)sc2C(N)=O)cc1
11%
COc1cc2ncn(-c3cc(OCc4sccc4Cl)c(C(N)=O)s3)c2cc1OC
0%

// each listed molecule needs a value for %Inh
1. CC(C)(C)n1cnc2c(N)ncnc21
2. COc1ccc(CNC(=O)NC2CCN(c3ccnc(Nc4ccc(OC)cc4)n3)C2)cc1 (centres unmarked)

Ans.
["0%", "0%"]

====

Can you tell me %Inh for the items I'm about to list?
Tested on: RPS6KA5(Kin.Dom.1-N-terminal)
Experimental Conditions: concentration: 1 μM, replicates: in singlicate; n = 1
Answers are plain numbers, in %.

Example results:
Cc1cccc(-c2nc(-c3ccc(S(C)(=O)=O)cc3)sc2-c2ccncc2)c1
11
c1ccc(-c2cc(-c3c[nH]nc3-c3ccccn3)ccn2)cc1
0
NCC(NC(=O)c1cc(-c2cn[nH]c2)c(-c2ccnc3[nH]ccc23)s1)c1ccccc1.O=C(O)C(F)(F)F.O=C(O)C(F)(F)F (stereo not shown)
13

Proceed to the following item.
Qu. Lab request: please report %Inh under test system RPS6KA5(Kin.Dom.1-N-terminal) for COc1ccc(CNC(=O)NC2CCN(c3ccnc(Nc4ccc(OC)cc4)n3)C2)cc1 (stereo not shown)
Ans. 7
